Assay: protein stability index of a GFP-peptide fusion (yeast GPS) (PSI 1-4); higher = more stable; sorted into four equal gates, so the index is relative within each strain
Conditions: doa10∆
Returns Satisfied if the recorded protein stability index is greater than or equal to 2, and Not satisfied otherwise.

• YIKYNILLTSISRERDL [SRP68] = Not satisfied

Does the sequence PAKSASARGSYLRVSFK [RPL17A] have recorded protein stability index that is 2 or more?
Satisfied

====

Please provide measured protein stability index for the entries that follow.
Assay: protein stability index of a GFP-peptide fusion (yeast GPS) (PSI 1-4); higher = more stable; sorted into four equal gates, so the index is relative within each strain
Conditions: pdr5∆
Give bare numbers.

• DSVFEQNEMIDAIAVTK [RPL3] = 2.8

Please go through the list and note protein stability index for each sequence.
1. YQGVYSMGSILLSFVLG [YML031W/NDC1]
2. HRKHIAVLKKIQSKAVE [YCG1]
3. NQSSFNFGNNGAGGLNP [YOR098C/NUP1]
4. KTAQTLDENLNSLSSNL [YJL041W/NSP1]
5. LPTVGFDFIKDNETPSK [YOR098C/NUP1]

1. 2.14
2. 2.81
3. 3.1
4. 2.29
5. 3.2

====

Assay: protein stability index of a GFP-peptide fusion (yeast GPS) (PSI 1-4); higher = more stable; sorted into four equal gates, so the index is relative within each strain
Details: ubr1∆
protein stability index of 3 or higher: 1. Under 3: 0.

# count of solved cases: 2
* MEIVANAKESNYTDLIW [MED1] | 0
* ILDINVSSSKNKKSEEN [SWP82] | 1

Assess whether reported protein stability index for QQLRRALPDVVVKGLPD [RPO31] sits at 3 or higher.
0

====

Assay: protein stability index of a GFP-peptide fusion (yeast GPS) (PSI 1-4); higher = more stable; sorted into four equal gates, so the index is relative within each strain
Conditions: doa10∆
ASSAY_READOUT: protein stability index
One number for each entry.

// known answers, use as guide
• RIYDREPTVRIQAVFCL [YCG1] = 2.47
• RGRPPKARNGLDYVRTP [SNF2] = 1.52
• DLKDILEKVVPLINVVV [BRR2] = 2.22

Hi! Can you tell me protein stability index for each of these sequences?
1. FLLRRVKADVEKSLLPK [ISW2]
2. YEYAEHDLLQIIHFHSH [SSN3]

1: 3.19; 2: 2.31

Could you report protein stability index for every entry in the following list?
1. SKEDTLRLCLDIVPYFL [RPN1]
2. EIRAKEYKTSSDSLGPD [SRB2]
3. DILLCYQKLFSQFINDH [SRB8]
4. EAFIASGITDPYEMYKY [FAS2]
5. IAGHDEFNGFSLYQVDP [PRE8]

1. 1.92
2. 2.81
3. 2.37
4. 1.81
5. 3.15

====

Assay: protein stability index of a GFP-peptide fusion (yeast GPS) (PSI 1-4); higher = more stable; sorted into four equal gates, so the index is relative within each strain
Conditions: ubr1∆
Could you label it yes if measured protein stability index is 3 or higher, and no otherwise?

Consider the worked cases shown below.
• LSDVAFYVQDVYKDNLS [RPO31] = no
• LRLGRGINPNTFRIFHN [YDL088C/ASM4] = no
• SNDRVNPLIELTPIQKK [ITC1] = no
• RLDSYKVIEQPITSETA [RPL25] = no
• EYLKRVSVPVSGQKTNR [SIR3] = no
• NAKKRVFKTHSYRGVDL [RPS15] = yes
• EKKGIVQASVTSSTHER [RET1] = yes
• TSVENEGPVANLKDYEL [REC8] = yes

Could you please find out whether FLGYKAGMTTIVRDLDR [RPL3] has protein stability index that meets 3 or exceeds it?
yes

Given VVNDLVGEKLVVVVLEE [SIR3] , state whether its protein stability index is at least 3.
yes

Check the entry NQSSFNFGNNGAGGLNP [YOR098C/NUP1] : does protein stability index equal or exceed 3?
yes

Please check the record VKAAINFSNVTDLTNNS [YIL149C/MLP2] and state if its protein stability index is at or above 3.
no

hey, is protein stability index for this one >= 3? KHWGGGILGNKAQAKMD [RPL8A]
yes

====

Test: protein stability index of a GFP-peptide fusion (yeast GPS) (PSI 1-4); higher = more stable; sorted into four equal gates, so the index is relative within each strain
Details: pdr5∆
Please go through the items and note down their protein stability index.

Some entries whose results are on file:
• ENPDLSTKKKILGIHTS [RPT2] = 3.02
• LEACIVRIMKAKRNLPH [CDC53] = 1.61
• GLARKFHNMLQTLYTGD [SSN3] = 3.25
• KNPHDIIEGINAGEIEI [RPL12A] = 2.44
• MVHREFLKLANGGKFSK [RGR1] = 2.74
• IPATIFDKVIYHLHPTF [TAF14] = 2.8

Give one value of protein stability index per listed sequence.
1. RSDSYMLHKVLENKADP [RPT6]
2. IASMSTVRASSLQDLIY [SMC2]

2.99
2.33

Hi there! I need protein stability index for each item below, if you can.
1. PIDAGLNEAPFPEENII [MCD1]
2. AGKFPTPVSHNDDLYGK [RPL1A]

[2.88, 2.62]

====

Test: protein stability index of a GFP-peptide fusion (yeast GPS) (PSI 1-4); higher = more stable; sorted into four equal gates, so the index is relative within each strain
Conditions: doa10∆
ASSAY_READOUT: protein stability index
Numbers only.

Some entries whose results are on file:
• NKQSVSNLSPDLKFKRH [DSN1] = 2.95
• YKLTNDEEGIFSRFVDQ [YCG1] = 2.94

For each of the sequences below, state protein stability index.
1. SENRDKFLQEFINLLLN [IRR1]
2. HSRILPKKALKVKAGVR [RRP43]
3. RPNLPTHNFKLSGVSNS [RGR1]

1. 2.53
2. 1.73
3. 1.72

Parameters: items (list). Returns: protein stability index for each item.
1. SAAGNKAIPTFSFGKPF [YIL149C/MLP2]
2. GSRTTTNHVLEVFSVLG [RPO31]
3. KHWTEKSLHEMNERDWR [PRP28]

1: 2.73; 2: 2.93; 3: 3.55

====

Assay: protein stability index of a GFP-peptide fusion (yeast GPS) (PSI 1-4); higher = more stable; sorted into four equal gates, so the index is relative within each strain
Details: ubr1∆
Please respond with reported protein stability index for every item in the list.
One number for each entry.

// worked examples, protein stability index included
- KFPDMGSLWVEFCDEPS [RPB5]: 2.96
- YPDLCSIYDKWTDPNLK [RPN1]: 2.93
- NVEMEEDVLVNQILMSV [RPL1A]: 2.92
- VQEMALGGPITKESQPT [FAS2]: 3.01

Please give protein stability index, item by item, for the list that follows.
1. DSEDEDSMKDTTDMISV [YML031W/NDC1]
2. KSSPISNEAAKPSFSFP [YOR098C/NUP1]
3. KEISTRVFNAKDTTGPK [YCS4]

2.98
3
2.99

GET /value?item= AHIEKQSLDTIGGSDAA [RPO21] &field=protein stability index returns 2.95

====

Experiment: protein stability index of a GFP-peptide fusion (yeast GPS) (PSI 1-4); higher = more stable; sorted into four equal gates, so the index is relative within each strain
Conditions: san1∆
ASSAY_READOUT: protein stability index
One number for each entry.

Here's what some known entries look like.
* NKEGTLEQREQNENLPS [SSN2] | 3.09
* ASVGDILKTLERSICAL [YML031W/NDC1] | 2.79
* ADEMGLGKTIQTISLLT [SNF2] | 2.46

I'm hoping you can list protein stability index for every sequence here, please.
1. EALIEFIYDTEKNGGLG [FAS2]
2. HNMLNLLIHRKGLTYLH [PRP8]

1: 2.67; 2: 1.6

====

Assay: protein stability index of a GFP-peptide fusion (yeast GPS) (PSI 1-4); higher = more stable; sorted into four equal gates, so the index is relative within each strain
Conditions: ubr1∆
ASSAY_READOUT: protein stability index
Answers are plain numbers.

Before answering, review these 6 worked examples.
- GSNQKPKYEPPVQSKFG [RPT2]: 3.09
- KMLNEFVKKTSEEIDSL [SMC2]: 3.09
- VLADALNAINNAEKTGK [RPS22A]: 2.97
- PSGAKKVISSDARGVIG [RPL2A]: 3.04
- TRNEQTTIQTEKVRPTP [MCD1]: 3
- NHMLIDSLNQLEIRNKI [RGR1]: 3.08

// each sequence listed below needs its protein stability index
1. RRKFDPSSSENVMTPRE [UBP6]
2. TLGVVGKSEKLSLLLVE [SKI6]
3. NKVCRIEAASTTQDQCK [RPB8]
4. NDANITSNKEGFNSIWK [SSN2]

1. 2.96
2. 2.96
3. 2.93
4. 3.09
